Just for reference, patent US20250074920A1 is where these values come from.

System: FYN
Assay: KINOMEscan kinase binding assay
Conditions: at 1 μM
ATTRIBUTE MEASURED: % Ctrl (%)
Just the number in %, nothing appended.

Worked cases, % Ctrl given:
Cc1cc2c([nH]1)/C=C1\C(=O)Nc3c(Cl)cc(cc31)-c1cn(C)nc1COC[C@@H](C)NC2=O    100
Cc1cc2c([nH]1)/C=C1\C(=O)Nc3c(Cl)cc(cc31)-c1cn(C)nc1COC[C@@H](C)N(C)C2=O    77
C[C@@H]1COCc2nn(C)cc2-c2cc(Cl)c3c(c2)/C(=C/c2[nH]ccc2C(=O)N1)C(=O)N3    93
Cc1cc2c([nH]1)/C=C1\C(=O)Nc3ccc(cc31)-c1c(nn(C)c1C)COCCN(C)C2=O    100

Prompt: // query % Ctrl value for entry Cc1cc2c([nH]1)/C=C1\C(=O)Nc3ccc(cc31)-c1c(nn(C)c1C)OCCCN(C)C2=O
Response: 91

====

Test system: EPHB4
Assay: KINOMEscan kinase binding assay
Conditions: at 1 μM
In this section, each of the compounds is paired with its reported % Ctrl.
Kindly report the value followed by its unit.

Worked cases, % Ctrl given:
Cc1cc2c([nH]1)/C=C1\C(=O)Nc3ccc(cc31)-c1c(nn(C)c1C)OCCCN(C)C2=O    86%
C[C@@H]1COCc2nn(C)cc2-c2cc(Cl)c3c(c2)/C(=C/c2[nH]ccc2C(=O)N1)C(=O)N3    98%

Prompt: // query % Ctrl value for entry Cc1cc2c([nH]1)/C=C1\C(=O)Nc3ccc(cc31)-c1c(nn(C)c1C)COCCN(C)C2=O
Response: 100%

Prompt: // query % Ctrl value for entry Cc1cc2c([nH]1)/C=C1\C(=O)Nc3c(Cl)cc(cc31)-c1cn(C)nc1COC[C@@H](C)NC2=O
Response: 97%

Prompt: // query % Ctrl value for entry Cc1cc2c([nH]1)/C=C1\C(=O)Nc3c(Cl)cc(cc31)-c1cn(C)nc1COC[C@@H](C)N(C)C2=O
Response: 91%

====

In this section, each of the compounds is paired with its reported % Ctrl.
System: AXL
Test: KINOMEscan kinase binding assay
Settings: at 1 μM
Just the number in %, nothing appended.

Worked cases, % Ctrl given:
Cc1cc2c([nH]1)/C=C1\C(=O)Nc3c(Cl)cc(cc31)-c1cn(C)nc1COC[C@@H](C)NC2=O [Cpd. 3]    86
Cc1cc2c([nH]1)/C=C1\C(=O)Nc3ccc(cc31)-c1c(nn(C)c1C)COCCN(C)C2=O [Cpd. 2]    43
Cc1cc2c([nH]1)/C=C1\C(=O)Nc3ccc(cc31)-c1c(nn(C)c1C)OCCCN(C)C2=O [Cpd. 1]    85

Prompt: // query % Ctrl value for entry Cc1cc2c([nH]1)/C=C1\C(=O)Nc3c(Cl)cc(cc31)-c1cn(C)nc1COC[C@@H](C)N(C)C2=O [Cpd. 5]
Response: 86

Prompt: // query % Ctrl value for entry C[C@@H]1COCc2nn(C)cc2-c2cc(Cl)c3c(c2)/C(=C/c2[nH]ccc2C(=O)N1)C(=O)N3 [Cpd. 4]
Response: 67

====

In this section, each of the compounds is paired with its reported % Ctrl.
Test system: FLT3-autoinhibited
Assay: KINOMEscan kinase binding assay
Conditions: at 1 μM
Just the number in %, nothing appended.

Cc1cc2c([nH]1)/C=C1\C(=O)Nc3c(Cl)cc(cc31)-c1cn(C)nc1COC[C@@H](C)N(C)C2=O    87
Cc1cc2c([nH]1)/C=C1\C(=O)Nc3ccc(cc31)-c1c(nn(C)c1C)COCCN(C)C2=O    83
Cc1cc2c([nH]1)/C=C1\C(=O)Nc3c(Cl)cc(cc31)-c1cn(C)nc1COC[C@@H](C)NC2=O    93
Cc1cc2c([nH]1)/C=C1\C(=O)Nc3ccc(cc31)-c1c(nn(C)c1C)OCCCN(C)C2=O    92

Please turn your attention to the following entry.
Prompt: Form entry - test system: FLT3-autoinhibited; read-out: % Ctrl; compound: C[C@@H]1COCc2nn(C)cc2-c2cc(Cl)c3c(c2)/C(=C/c2[nH]ccc2C(=O)N1)C(=O)N3
Response: 93
